- subject of test: α-Chymotrypsin (Bos taurus, UniProt P00766)
- Construct: purchased Sigma-Aldrich (USA) C4129; host or cells: bovine pancreas
- assay details: α-Chymotrypsin inhibition kinetic study (Lineweaver-Burk, Dixon, Hanes-Woolf plots)
- Assay type: biochemical, bovine
- condition info: from Lineweaver-Burk, Dixon and Hanes-Woolf plots

smiles entry: Cc1ccc(Cl)cc1NC(=S)Nc1cccc(Cl)c1
Type of inhibition: Competitive
--
smiles entry: Fc1ccc(NC(=S)Nc2cccc(Cl)c2)cc1F
Type of inhibition: Competitive
--
smiles entry: S=C(Nc1cccc(Cl)c1)Nc1ccc(Cl)cc1Cl
Type of inhibition: Mixed

----------
Measured GI50 at 72 h values are reported for all entries that follow.
- assay details: Cell proliferation inhibition (cytotoxicity) MTT assay for 3T3 cell line
- Format: cell-based, Mouse
- condition info: 3T3 mouse fibroblast cells; 3T3 mouse fibroblasts, MTT, 72 hrs, n = 3; read-out: 3T3 cell-line GI50 ± SEM

Observe how each entry below is paired with its result.
smiles entry: S=C(Nc1cccc(Cl)c1)Nc1c(Cl)cccc1Cl
GI50 at 72 h: > 30 µM

smiles entry: COc1ccccc1NC(=S)Nc1cccc(Cl)c1
GI50 at 72 h: 10.7 µM

Ask: Supply reported GI50 at 72 h belonging to this molecule: "S=C(Nc1cccnc1)Nc1cccc(Cl)c1"
Result: > 30 µM

----------
- assay details: Cell proliferation inhibition (cytotoxicity) MTT assay for 3T3 cell line
- Format: cell-based, Mouse
- condition info: 3T3 mouse fibroblast cells; 3T3 mouse fibroblasts, MTT, 72 hrs, n = 3; read-out: 3T3 cell-line GI50 ± SEM
- Description: It was evaluated by using the MTT (3-[4,5-dimethylthiazole-2-yl]-2,5-diphenyl-tetrazolium bromide) assay (Mosmann, 1983). The 3T3 cell-lines (Mouse Fibroblasts) were cultured in Dulbecco's Modified Eagle's Medium, which was later supplemented with 5% of bovine serum, 100 IU/mL of penicillin, and 100 μg/mL of streptomycin, in 5% CO2 incubator at 37° C. […] Subsequently, the media containing MTT was replaced by 100 μL of DMSO for 15 min, and then the absorbance was taken at 570 nm.
property name: GI50 at 72 h

compound: Cc1ccc(NC(=S)Nc2cccc(Cl)c2)cc1 [Compound 9, 1-(3-Chlorophenyl)-3-p-tolylthiourea]
GI50 at 72 h: 2.3 µM
//
compound: S=C(Nc1ccc(Cl)cc1)Nc1cccc(Cl)c1 [Compound 1]
GI50 at 72 h: > 30 µM
//
compound: S=C(NCc1ccncc1)Nc1cccc(Cl)c1 [Compound 18]
GI50 at 72 h: > 30 µM
//
compound: S=C(Nc1ccccc1)Nc1cccc(Br)c1 [Compound 21, 1-(3-Bromophenyl)-3-phenylthiourea]
GI50 at 72 h: > 30 µM
//
compound: Fc1ccc(NC(=S)Nc2cccc(Cl)c2)cc1F [Compound 11]
GI50 at 72 h: > 30 µM

Ask: Supply reported GI50 at 72 h belonging to this compound: COc1cccc(NC(=S)Nc2cccc(Cl)c2)c1 [Compound 4]
Result: > 30 µM

Ask: Supply reported GI50 at 72 h belonging to this compound: COc1ccc(NC(=S)Nc2cccc(Cl)c2)cc1 [Compound 6]
Result: > 30 µM

----------
- subject of test: α-Chymotrypsin (Bos taurus)
- Construct: purchased Sigma-Aldrich (USA) C4129; host or cells: bovine pancreas
- assay details: α-Chymotrypsin inhibition kinetic study (Lineweaver-Burk, Dixon, Hanes-Woolf plots)
- Assay type: biochemical, bovine
- condition info: from Lineweaver-Burk, Dixon and Hanes-Woolf plots
property name: Type of inhibition

Observe how each entry below is paired with its result.
smiles entry: Cc1cccc(NC(=S)Nc2cccc(Cl)c2)c1
property name: Type of inhibition
result: Mixed

smiles entry: S=C(Nc1ccccc1)Nc1cccc(Br)c1
property name: Type of inhibition
result: Mixed

smiles entry: Cc1ccc(C)c(NC(=S)Nc2cccc(Cl)c2)c1
property name: Type of inhibition
result: Competitive

smiles entry: COc1ccc(NC(=S)Nc2cccc(Cl)c2)cc1
property name: Type of inhibition
result: Mixed

smiles entry: Cc1ccc(NC(=S)Nc2cccc(Cl)c2)cc1
property name: Type of inhibition
result: Non- Competitive

Ask: Supply reported Type of inhibition belonging to this compound: "S=C(Nc1cccc(Cl)c1)Nc1c(Cl)cccc1Cl"
Result: Competitive

Ask: Supply reported Type of inhibition belonging to this compound: "Cc1ccc(NC(=S)Nc2cccc(Cl)c2)c(C)c1"
Result: Non- Competitive

Ask: Supply reported Type of inhibition belonging to this compound: "COc1ccccc1NC(=S)Nc1cccc(Cl)c1"
Result: Non- Competitive

Ask: Supply reported Type of inhibition belonging to this compound: "S=C(NCc1ccncc1)Nc1cccc(Cl)c1"
Result: Competitive

Ask: Supply reported Type of inhibition belonging to this compound: "Fc1ccc(NC(=S)Nc2cccc(Cl)c2)cc1"
Result: Competitive

Ask: Supply reported Type of inhibition belonging to this compound: "Cc1ccccc1NC(=S)Nc1cccc(Cl)c1"
Result: Competitive

Ask: Supply reported Type of inhibition belonging to this compound: "S=C(Nc1cccc(Cl)c1)Nc1cccc(Cl)c1"
Result: Mixed

Ask: Supply reported Type of inhibition belonging to this compound: "S=C(Nc1cccc(Cl)c1)Nc1cccc(Cl)c1Cl"
Result: Competitive

----------
For α-Chymotrypsin (Bos taurus), measured IC50 is reported for the entries below.
property name: IC50 (µM)

(A) S=C(Nc1cccc(Cl)c1)Nc1c(Cl)cccc1Cl
(B) S=C(Nc1cccc(Cl)c1)Nc1ccc(Cl)cc1Cl
Ask: Looking only at measured IC50, which entry is lower, A or B ? Reply briefly: the label of your chosen item.
Result: B
(B: 42.4 µM, A: 247 µM)

----------
- subject of test: α-Chymotrypsin (Bos taurus)
property name: Ki (µM)

compound: S=C(Nc1cccc(Cl)c1)Nc1ccc(Cl)c(Cl)c1 [Compound 2]
property name: Ki
quantitative readout: 15.5
//
compound: S=C(Nc1ccc(Cl)cc1)Nc1cccc(Cl)c1 [Compound 1]
property name: Ki
quantitative readout: 8.6

(A) Fc1ccc(NC(=S)Nc2cccc(Cl)c2)cc1F [Compound 11]
(B) S=C(Nc1cccc(Cl)c1)Nc1cccc(Cl)c1Cl [Compound 13]
Ask: Ki comparison. Which is larger, A or B ? Reply briefly: the label of your chosen item.
Result: B
(B: 87.3 µM, A: 49.8 µM)

(P) S=C(Nc1ccccc1)Nc1cccc(Br)c1 [Compound 21, 1-(3-Bromophenyl)-3-phenylthiourea]
(Q) S=C(Nc1cccc(Cl)c1)Nc1ccc(Cl)cc1Cl [Compound 8]
Ask: Ki comparison. Which is larger, P or Q ? Reply briefly: the label of your chosen item.
Result: P
(P: 60.8 µM, Q: 31.8 µM)

(P) S=C(Nc1ccccc1)Nc1ccc(Br)cc1 [Compound 20, 1-(4-Bromophenyl)-3-phenylthiourea]
(Q) Fc1ccc(NC(=S)Nc2cccc(Cl)c2)cc1 [Compound 12]
Ask: Looking only at measured Ki, which entry is lower, P or Q ? Reply briefly: the label of your chosen item.
Result: P
(P: 21.1 µM, Q: 62.5 µM)

----------
- assay details: Cell proliferation inhibition (cytotoxicity) MTT assay for 3T3 cell line
- Type: cell-based, Mouse
- condition info: 3T3 mouse fibroblast cells; 3T3 mouse fibroblasts, MTT, 72 hrs, n = 3; read-out: 3T3 cell-line GI50 ± SEM
- Method: It was evaluated by using the MTT (3-[4,5-dimethylthiazole-2-yl]-2,5-diphenyl-tetrazolium bromide) assay (Mosmann, 1983). The 3T3 cell-lines (Mouse Fibroblasts) were cultured in Dulbecco's Modified Eagle's Medium, which was later supplemented with 5% of bovine serum, 100 IU/mL of penicillin, and 100 μg/mL of streptomycin, in 5% CO2 incubator at 37° C. […] Subsequently, the media containing MTT was replaced by 100 μL of DMSO for 15 min, and then the absorbance was taken at 570 nm.
property name: GI50 at 72 h

Ask: Supply reported GI50 at 72 h belonging to this molecule: S=C(Nc1ccccc1)Nc1ccc(Br)cc1 [Compound 20, 1-(4-Bromophenyl)-3-phenylthiourea]
Result: > 30 µM

Ask: Supply reported GI50 at 72 h belonging to this molecule: S=C(Nc1cccc(Cl)c1)Nc1ccc(Cl)c(Cl)c1 [Compound 2]
Result: > 30 µM

----------
- subject of test: α-Chymotrypsin (Bos taurus)
- Construct: purchased Sigma-Aldrich (USA) C4129; host or cells: bovine pancreas
- assay details: α-Chymotrypsin inhibition kinetic study (Lineweaver-Burk, Dixon, Hanes-Woolf plots)
- Format: biochemical, bovine
- condition info: from Lineweaver-Burk, Dixon and Hanes-Woolf plots

smiles entry: COc1cccc(NC(=S)Nc2cccc(Cl)c2)c1
Type of inhibition: Mixed

smiles entry: S=C(Nc1cccnc1)Nc1cccc(Cl)c1
Type of inhibition: Competitive

smiles entry: Fc1ccc(NC(=S)Nc2ccccc2)c(F)c1
Type of inhibition: Competitive

----------
For UniProt P00766, measured pIC50 is reported for the entries below.
pIC50: −log10 of the molar value.

Observe how each entry below is paired with its result.
compound: S=C(Nc1cccc(Cl)c1)Nc1ccccc1Cl [Compound 23]
pIC50: < 3.30

compound: Cc1cccc(C)c1NC(=S)Nc1cccc(Cl)c1 [Compound 24]
pIC50: < 3.30

compound: Cc1ccccc1NC(=S)Nc1cccc(Cl)c1 [Compound 17, 1-(3-Chlorophenyl)-3-o-tolylthiourea]
pIC50: 3.41

compound: Cc1ccc(NC(=S)Nc2cccc(Cl)c2)c(C)c1 [Compound 15]
pIC50: 3.72

Ask: Supply reported pIC50 belonging to this compound: S=C(NCc1ccncc1)Nc1cccc(Cl)c1 [Compound 18]
Result: 3.73

Ask: Supply reported pIC50 belonging to this compound: Fc1ccc(NC(=S)Nc2ccccc2)c(F)c1 [Compound 22]
Result: 3.71

Ask: Supply reported pIC50 belonging to this compound: S=C(Nc1ccccc1)Nc1ccccn1 [Compound 28, 1-Phenyl-3-(pyridin-2-yl) thiourea]
Result: < 3.30

Ask: Supply reported pIC50 belonging to this compound: Cc1cccnc1NC(=S)Nc1cccc(Cl)c1 [Compound 25]
Result: < 3.30

Ask: Supply reported pIC50 belonging to this compound: S=C(Nc1cccc(Cl)c1)Nc1cccc(Cl)c1Cl [Compound 13]
Result: 3.97

Ask: Supply reported pIC50 belonging to this compound: S=C(NCc1ccncc1)Nc1ccccc1 [Compound 35]
Result: < 3.30

Ask: Supply reported pIC50 belonging to this compound: S=C(NCc1cccnc1)Nc1ccccc1 [Compound 34]
Result: < 3.30

Ask: Supply reported pIC50 belonging to this compound: Cc1cccnc1NC(=S)Nc1ccccc1 [Compound 31]
Result: < 3.30

Ask: Supply reported pIC50 belonging to this compound: S=C(Nc1cccc(Cl)c1)Nc1cccnc1Cl [Compound 26]
Result: < 3.30
